Origin of values: ChEMBL document CHEMBL1201862

# Test system: EKVX
# assay_method_text: NCI tumour cell line growth inhibition, 48 h
Active and inactive are the calls of the source. Rule as the data show it: active = GI50 up to about 1.1 µM and inactive = higher.
Field 'call' accepts class 1 (active), class 0 (inactive)

compound	group
COC(=O)/C(C)=N/N=C(\S)SC	class 0
Cc1cnc2sn(-c3ccc(Br)cc3)c(=O)c2c1	class 0
Cc1cc(NCCCCCCNc2cc(C)nc3ccc(Cl)cc23)c2cc(Cl)ccc2n1	class 0
COc1ccc(CC2c3cc(Oc4cc(CC5c6cc(OC)c(OC)cc6CCN5C)ccc4O)c(OC)cc3CCN2C)cc1 (centres undefined)	class 0
Cc1ccc2[nH]c3[nH]c(=O)[nH]c(=O)c3c2c1	class 0

Q. Which outcome was assigned to `COc1ccc2c(c1O)-c1cc(O)cc3c1[C@@H](C2)N(C)CC3` in this test?
A. class 0

Q. Query: recorded result category for `CC[P+](C)(C)CC` in this test
A. class 0

Q. Tell me the assay call for `COc1c2c(cc3nc4ccccc4nc13)CC[C@H](NC(C)=O)c1cc(=O)c(SC)ccc1-2` please.
A. class 1

Q. Called result for `CC(C)(C)N1Cc2ccccc2/C(=C/Sc2ccccc2)C1=O`
A. class 0

----------
# Tested on: A498
# assay_method_text: NCI tumour cell line growth inhibition, 48 h
The source made the active and inactive calls. Rule as the data show it: active = GI50 up to about 1.1 µM and inactive = higher.
quantity_name: GI50

compound	study_target	quantity_name	readout_value
O=C(CCc1cc(O)cc(O)c1)NCCCNC(=O)CCc1cc(O)cc(O)c1	A498	GI50	> 100 µM (inactive)
CN(C)CCC(=O)N1CCc2c([nH]c3ccccc23)C1c1cccnc1 (stereo not given)	A498	GI50	> 100 µM (inactive)
CC1=C(C(=O)Nc2ccccc2C)C(/C=C/c2ccccc2)C(C(=O)Nc2ccccc2C)=C(C)N1	A498	GI50	37.8 µM (inactive)

List reported GI50 for each of these compounds:
1. Cc1ccc(-c2cc(C(F)(F)F)nn2-c2ccc(S(N)(=O)=O)cc2)cc1 [CELECOXIB]
2. CCN(CC)Cc1cc(Nc2c3ccccc3nc3c4ccccc4n(C)c23)cc(CN(CC)CC)c1O
3. CC1(C)CCC[C@@]2(C)C1CCC1(C)C(CCc3ccoc3)/C(=C/OS(=O)(=O)O)CCC12 (stereo not given in full)
4. CNC(=O)SCC(N)C(=O)O (stereo not given)
5. CC(C)(C)N1Cc2ccccc2/C(=C/Sc2ccccc2)C1=O
6. COc1cc(-c2cc(=O)c3c(O)c(CC=C(C)C)c(O)cc3o2)ccc1O
7. O=C1Nc2ccccc2C12CCCC2

A.
1: 15.1 µM (inactive); 2: 6.07 µM (inactive); 3: > 100 µM (inactive); 4: > 100 µM (inactive); 5: 20 µM (inactive); 6: > 50 µM (inactive); 7: > 100 µM (inactive)

----------
# Tested on: MOLT-4
# assay_method_text: NCI tumour cell line growth inhibition, 48 h
The source made the active and inactive calls. Cut-off read from the data, not from the text of the source: active = GI50 up to about 1.1 µM and inactive = higher.
// one of active, inactive, no free text

Q. Any idea what this test logged for `COc1cc(S(=O)(=O)Nc2nc(-c3ccc(/N=C/c4cccs4)cc3)cs2)ccc1Cl` ?
A. inactive

Q. Kindly provide the recorded test outcome for the following compound: `CCN(CC)CCC(=O)c1ccc(Cl)c(Cl)c1`
A. inactive

----------
For each of the molecules below, state its GI50.
# Test system: SF-268
# assay_method_text: NCI tumour cell line growth inhibition, 48 h
The source made the active and inactive calls. Rule as the data show it: active = GI50 up to about 1.1 µM and inactive = higher.

Example cases with answers are listed next.
molecule	quantity_name	readout_value
NC1=CN2c3ccccc3N(CC(=O)N3CCOCC3)C2C=C1 (stereo not given)	GI50	> 100 µM (inactive)
C=C1CC2OC2(C(=O)O[C@H]2CCC3[C@@H]4CCC5=CC(=O)CC[C@]5(C)C4CC[C@@]32C)C1=O (stereo not given in full)	GI50	8.41 µM (inactive)
CN(C)CCC(=O)N1CCc2c([nH]c3ccccc23)C1c1cccnc1 (stereo not given)	GI50	> 100 µM (inactive)
O=Cc1ccc(Oc2c3ccccc3nc3ccccc23)cc1	GI50	4.5 µM (inactive)
CNC(=O)SCC(N)C(=O)O (stereo not given)	GI50	> 100 µM (inactive)
Cc1c(Cl)cccc1NC(=O)c1cccc([N+](=O)[O-])c1O	GI50	20.3 µM (inactive)
CC(=O)O[C@H]1CC[C@@]2(C)C(CC[C@]3(C)C2CC[C@]2(C)Oc4c(C)cc(O)cc4C[C@@H]23)C1(C)C (stereo not given in full)	GI50	4.61 µM (inactive)
CC(=O)OCC1OC(n2cc(F)c(=O)[nH]c2=O)C(NC(=O)N(CCCl)N=O)C(OC(C)=O)C1OC(C)=O (stereo not given)	GI50	17.3 µM (inactive)

Go through the items and report each one's GI50.
1. COc1cc(/C=C2/Oc3c(OC)cccc3C2=O)ccc1O
2. O=C(O)COc1ccc2c3c1C(=O)CCC3CO2 (stereo not given)

A.
["> 100 µM (inactive)", "> 100 µM (inactive)"]
